sensor-assay potency score (higher = more potent) listing for selected sequences.
Assayed System: MRPS18C
Procedure Text: pooled miR-30 sensor sort-seq; sequence = guide strand
Measurement Conditions: shRNA
Give the figure only, with no unit attached.

Before answering, review these 5 worked examples.
TTTCTTCCCACAAAGACCTGTA	0.204
ATTTCTTTCTGTTTCTTCCCAC	0.584
TTTGAGCTCTCTTAATTGCTTT	-0.321
TAGGGTCCTTGAGATATGCAGG	-0.899
TGCTTTTGTGATTTCTTTCTGT	0.125

// query Please give the measured sensor-assay potency score (higher = more potent) for this sequence: TACCAAGTGTGTCAACTTCTTC
// result -0.886

// query And then TTGTGAACAACCTCTTCTCCAA , what is it?
// result -0.0976

// query Again, but for TGTGATTTCTTTCTGTTTCTTC
// result 0.701

* * *

Assayed System: ECH1
Procedure Text: pooled miR-30 sensor sort-seq; sequence = guide strand
Measurement Conditions: shRNA
Catalogue of sensor-assay potency score (higher = more potent) values

Here's what some known entries look like.
TTTGTCTGGGAACACCCGGCTG	-1.1
TCAGCGTCTCTCGAAATCTTGT	-0.622
AAATCTTGTTGAAGCACTCTAC	0.264

// query What value of measured sensor-assay potency score (higher = more potent) is listed for TTGTGCAGAGGAGCCAGTGAGG ?
// result -1.37

// query Same read-out for TGAACATTTTTCCTGCACCAGA ?
// result -1.08

// query Now the sequence TTGAAGGTCTCCTGGTATCGAG
// result -0.974

// query Same thing, different sequence: TTGGAGCCTGTCAGTCGCCGGG
// result -1.13

// query Repeat with TTGGGCTGCAGGATGTCCGAAG
// result -0.857

// query Next: TGTCCATCAGGTCAATACCTGC
// result -1.4

// query Record: TACAGCAGGTTGACCTTGGTGC
// result 0.173

// query Would you mind doing TCTTGCTGGAAATCTCGGCCGC as well?
// result -0.461

// query // same read-out, input: TTGACCAGGCTCTGGTTCCCGA
// result -0.944

// query What about AAGGCTAATACTGAGTCCCGGG ?
// result 0.193

// query Now the same for TAAACTGGGAAACTGGGTCAGA
// result -0.506

// query Also TCGTCAGCCATCATCTTGCGGG , if possible.
// result -0.729

// query Quick one: AAGCACTCTACCATCTCTCTCC
// result -0.152

* * *

Assayed System: SLC8A1
Procedure Text: pooled miR-30 sensor sort-seq; sequence = guide strand
Measurement Conditions: shRNA
sensor-assay potency score (higher = more potent) overview

Answered examples (5):
TATCACAACAACATTTCCGAAC	-0.676
TTAATCTTCCTTGTCTCTCCGT	0.395
TTGAACATGATGATGCCCCTGG	0.652
TTGTCTTGGTGGTCTCTCCATT	-0.926
TTTATCTGGATGCTTCTGCTTA	-0.388

// query Quick one: sensor-assay potency score (higher = more potent) for TAAAACTGACAGACAATCCCAA ?
// result 0.165

* * *

Assayed System: STRA6
Procedure Text: pooled miR-30 sensor sort-seq; sequence = guide strand
Measurement Conditions: shRNA
Reported Endpoint: sensor-assay potency score (higher = more potent)
Give your answer as a number; write no unit.

Solved entries (count: 7):
TTCCTCAGAGTAGCTGCTCTGC	-1.09
TTGGAGGTGTGGTAGCTGCTTC	-0.709
TAGTACTTGTAGATCTTGGGCA	0.389
TGTAGCTGAAAGCACCAGCTTC	-0.655
TAGGCACTGAAGCTCATCCAAC	-1.34
TAGATGCAGTGTCTCAAGCAGA	-0.804
TTTCTTTCTCCAGAACCCCTGC	-0.557

// query Find the recorded sensor-assay potency score (higher = more potent) belonging to TCAATCTTCAAGAAGTTTCGGT and report it.
// result 0.639

* * *

sensor-assay potency score (higher = more potent) reference
Assayed System: JOSD1
Procedure Text: pooled miR-30 sensor sort-seq; sequence = guide strand
Measurement Conditions: shRNA
Please give the numeric answer without any surrounding text.

Below are worked cases with known answers.
TAGAAACTTCCTGAGCTCGCTC	0.337
TTGAGTTTGGAGTCGAGGTTGT	0.206
TTTTAGAAACTTCCTGAGCTCG	-0.609

// query May I ask what sensor-assay potency score (higher = more potent) has been recorded for TGATGTTTTAGAAACTTCCTGA ?
// result 0.299

// query Item: TTTCCCAGCATGCTCTTCTTGT
// result -0.498

// query Also TTCCTGAGCTCGCTCTCGCCTC , if possible.
// result -1.09

* * *

In this section we review reported sensor-assay potency score (higher = more potent) values for a set of sequences.
Assayed System: ASNSD1
Procedure Text: pooled miR-30 sensor sort-seq; sequence = guide strand
Measurement Conditions: shRNA
Reply briefly: the number, and no unit.

TATTAGGACTGTCAGCAGCAGC	-1.12
TAACTCTGTCATCACGACCAAG	-0.98
TAAATCTTGACTGAAATGCTCA	-0.203
TTCTAGAAGAAATTCGACCCAG	-0.284
TTTTTCACCAATTCCTCGGGGT	0.495

// query Give sensor-assay potency score (higher = more potent) (ASNSD1) of the following sequence: TTTCTTGACTGCTACACTCAGG
// result -0.64

// query Also check TTCCATAGAAACACATTGCCTC
// result 0.13

* * *

Assayed System: VN1R2
Procedure Text: pooled miR-30 sensor sort-seq; sequence = guide strand
Measurement Conditions: shRNA
This listing pairs sequences with measured sensor-assay potency score (higher = more potent).
Lab note: record just the number, no unit beside it.

Example entries begin here.
TTGGGGTAGAGATTGTTCCTAC	-0.232
TTAGATAGGATAACCAAGGAGT	-0.311
TTTGGTGGGTTTCTCTCCGTGT	-0.0937
TACAAGACCAAAACGATGGAGC	-0.2

// query For the sequence shown here, TTCTTTGTGATGTTGTTGTTGC , give the reported sensor-assay potency score (higher = more potent).
// result -0.241

* * *

Each item that follows carries a reported sensor-assay potency score (higher = more potent).
Assayed System: GPR123
Procedure Text: pooled miR-30 sensor sort-seq; sequence = guide strand
Measurement Conditions: shRNA
# answer = number (no unit)

Recorded results for 4 sequences are shown here.
TAATTCCTGATGTTCGTGGCAG	-0.373
TGTGTGCGCAGCTCGTACCTGC	-0.983
TTTTCCAGGGTCCCGTTCGGAT	-1.35
TTCTGCAGCACGGAGGCGCCGG	-0.928

Below: the item to evaluate.
// query I'd like to know its sensor-assay potency score (higher = more potent). The sequence in question is TTCTAGCAATTTACCCTTGGGC
// result -1.05

* * *

Assayed System: NOX3
Procedure Text: pooled miR-30 sensor sort-seq; sequence = guide strand
Measurement Conditions: shRNA
# sensor-assay potency score (higher = more potent) values compiled below
Answer with a bare number; do not write a unit.

TAAAATTCAGGCACAGTGCGGA	-0.0572

// query Bench note: what sensor-assay potency score (higher = more potent) did TAAAGCTATGTGAAGAGCCTGA show?
// result 0.784

// query Proceed to TACCAGAACAACTCATAGGAGG
// result -0.91

// query Now give it for TAATTATTCTTTCACATGCATA too.
// result -1.3

// query Now give it for TTGAACCCAAAATAACTCGTGT too.
// result -0.176

// query Also need TAGCGGTCTCTACAGAAGGTGA , thanks.
// result -1.67

// query Cool, now TAGATTTCAGAAGAGCAGCGAA
// result -0.277

* * *

Assayed System: KLC3
Procedure Text: pooled miR-30 sensor sort-seq; sequence = guide strand
Measurement Conditions: shRNA
Decide by sensor-assay potency score (higher = more potent): equal to or exceeding -0.4 means Yes, less means No.

// query Confirm if sensor-assay potency score (higher = more potent) reported for the sequence TTGAGTGACATGGCTCTCTTCA is -0.4 or above.
// result Yes

// query Same lookup for TTTCTTTGTACAGCTCTTCCGC , please.
// result Yes

// query Try this sequence too: TTGGAGAGTGAGCTGCTGCGGC
// result No

// query Thanks! And TTTGTACTTGTTCTGGTCCCGG ?
// result No

// query Repeat with TTCTTTGTACAGCTCTTCCGCT
// result No

* * *

Assayed System: FAM162A
Procedure Text: pooled miR-30 sensor sort-seq; sequence = guide strand
Measurement Conditions: shRNA
Reported Endpoint: sensor-assay potency score (higher = more potent)

The following sequences have reported results that may help.
TAGATAGCTGATCTTCACTCGC	0.225
TTCACTCGCATCTTGTTCTTTG	-0.205
TTAGAGATGAGGAAACATCTCT	0.0745
TCATCTTCCTTTTTGAAGCGAC	-0.679
TTCTACAGCAGAAATACGGAAA	-0.939

// query What value of sensor-assay potency score (higher = more potent) has been reported for the following sequence? ATAGCTGATCTTCACTCGCATC
// result -1.3

// query Now consider TAAAACAGCTTCCTGCTGCCAG .
// result -0.369
